molecular target: APOL1; conditions: ASO, A431, 0.25 µM
After the bases stand the sugars from the 5' end (letter, count) and the backbone: PS all phosphorothioate, else s phosphorothioate and o phosphodiester by linkage. Methylation of C is not given here. e = 2'-O-(2-methoxyethyl) (MOE); k = constrained ethyl (cEt); d = 2'-deoxy (DNA)
measure_name: target mRNA inhibition
Write your answer as a measured quantity: the number, then the unit.

Some entries whose results are on file:
seq_text	measure_name	measured
TCATTAGTGCTATAGA (sugars k4 d9 k3, PS)	target mRNA inhibition	71%
AACTTTACCTCACCCT (sugars k4 d9 k3, PS)	target mRNA inhibition	68%
GCTGGGTCTGTAGTGG (sugars k4 d9 k3, PS)	target mRNA inhibition	70%
GATTCTGTGTGCTCAC (sugars k4 d9 k3, PS)	target mRNA inhibition	72%

Continue with the sequence presented below.
Query: What value of target mRNA inhibition has been reported for the following sequence? ATTCTCATGGTACAGG (sugars k3 d4 k3 e1 d5, PS)
Result: 72%

* * *

# reported target mRNA inhibition; entries follow
target: MALAT1; details: ASO, A431, 0.005 µM
After the bases stand the sugars from the 5' end (letter, count) and the backbone: PS all phosphorothioate, else s phosphorothioate and o phosphodiester by linkage. Methylation of C is not given here. k = constrained ethyl (cEt); d = 2'-deoxy (DNA)
Note: unit % is implicit; provide only the numeric part.

Some entries whose results are on file:
seq_text	target mRNA inhibition, %
CTGAAAGAACTAGTGG (sugars k3 d10 k3, PS)	20
GCTCGCTTGCTCCTCA (sugars k3 d10 k3, PS)	39
CAAAATGGCGGACTTT (sugars k3 d10 k3, PS)	17
TCCCCCATTATATTAG (sugars k3 d10 k3, PS)	14
ATGCACTGGTACACCC (sugars k3 d10 k3, PS)	24

Query: What value of target mRNA inhibition has been reported for the following sequence? TTAAAGTAGACCAACT (sugars k3 d10 k3, PS)
Result: 27

Query: What value of target mRNA inhibition has been reported for the following sequence? ATATTTTAAACGGGTC (sugars k3 d10 k3, PS)
Result: 16

Query: What value of target mRNA inhibition has been reported for the following sequence? GCCATCTACTATTTCT (sugars k3 d10 k3, PS)
Result: 38

Query: What value of target mRNA inhibition has been reported for the following sequence? ATGCTAGTCCTCAGGA (sugars k3 d10 k3, PS)
Result: -20

Query: What value of target mRNA inhibition has been reported for the following sequence? AGAAGTCTCGGGCTGC (sugars k3 d10 k3, PS)
Result: 8

Query: What value of target mRNA inhibition has been reported for the following sequence? GCCCCCTCAGCAGAAG (sugars k3 d10 k3, PS)
Result: 25

Query: What value of target mRNA inhibition has been reported for the following sequence? TTAAGTTGGTAATTAC (sugars k3 d10 k3, PS)
Result: -6

Query: What value of target mRNA inhibition has been reported for the following sequence? TCAATTAATGCTAGTC (sugars k3 d10 k3, PS)
Result: 35

* * *

target: APOL1; conditions: ASO, A431, 2 µM
After the bases stand the sugars from the 5' end (letter, count) and the backbone: PS all phosphorothioate, else s phosphorothioate and o phosphodiester by linkage. Methylation of C is not given here. e = 2'-O-(2-methoxyethyl) (MOE); k = constrained ethyl (cEt); d = 2'-deoxy (DNA)
measure_name: target mRNA inhibition (%)
Note: unit % is implicit; provide only the numeric part.

Some entries whose results are on file:
seq_text	target mRNA inhibition [%]
TTTGTAAGTGCAACCA (sugars kekddddeekkddddd, PS)	99
TTTATACCAGTGTCTT (sugars k2 d4 e3 k2 d5, PS)	88
TCCGTCAATATATTCT (sugars kkddddkekekddddd, PS)	94
TCTATTAGAGGGCTAG (sugars kkddddkdkdkddddd, PS)	68
CTGTTCTAACTCTTGG (sugars kkddddekekeddddd, PS)	97
AACACATCATTGGGTT (sugars k2 d4 e3 k2 d5, PS)	43

Query: What value of target mRNA inhibition has been reported for the following sequence? TTCTCATGGTACAGGA (sugars kkddddkekekkdddd, PS)
Result: 20

Query: What value of target mRNA inhibition has been reported for the following sequence? TTTATACCAGTGTCTT (sugars k2 d4 e4 k2 d4, PS)
Result: 89

Query: What value of target mRNA inhibition has been reported for the following sequence? AGCTTTAAACTCAGGT (sugars k3 d4 k3 e1 d5, PS)
Result: 82

Query: What value of target mRNA inhibition has been reported for the following sequence? ACACATCATTGGGTTA (sugars kkddddkdkdkddddd, PS)
Result: 57

Query: What value of target mRNA inhibition has been reported for the following sequence? CGTCAATATATTCTTT (sugars kkddddekekeddddd, PS)
Result: 90

Query: What value of target mRNA inhibition has been reported for the following sequence? TTTGTAAGTGCAACCA (sugars kkddddkdkdkddddd, PS)
Result: 99

Query: What value of target mRNA inhibition has been reported for the following sequence? CGCAATGCTGACTTGG (sugars kkddddekekeddddd, PS)
Result: 94

Query: What value of target mRNA inhibition has been reported for the following sequence? TAAGTATTGCCAGCTA (sugars k2 d4 e3 k2 d5, PS)
Result: 79

Query: What value of target mRNA inhibition has been reported for the following sequence? AGCTTTAAACTCAGGT (sugars k2 d4 e3 k2 d5, PS)
Result: 93

Query: What value of target mRNA inhibition has been reported for the following sequence? GTGTATTTCTTGATGT (sugars k2 d4 e3 k2 d5, PS)
Result: 96

Query: What value of target mRNA inhibition has been reported for the following sequence? ACACATCATTGGGTTA (sugars kdddddkekekddddd, PS)
Result: 47

* * *

biological target: IRF5; conditions: ASO, KARPAS-229, 4 µM
After the bases stand the sugars from the 5' end (letter, count) and the backbone: PS all phosphorothioate, else s phosphorothioate and o phosphodiester by linkage. Methylation of C is not given here. e = 2'-O-(2-methoxyethyl) (MOE); k = constrained ethyl (cEt); d = 2'-deoxy (DNA)
Quick rule: target mRNA inhibition of at least 10% means Met, below that means Not met.

Past entries and their recorded results:
seq_text	class_label
CATCTCCACATCAGTC (sugars kddddddddddkekek, PS)	Met
ATCACCACTGTGTACC (sugars kkddddddddddkeke, PS)	Not met
AGGGCACAGCGCAGGT (sugars k3 d10 k3, PS)	Not met
CAGGTTCTTGGACTCT (sugars k3 d10 k3, PS)	Not met
GCTTGGTCTTGACCTC (sugars kkdddddddddkekek, PS)	Met

// next entry
Query: State whether the measured target mRNA inhibition reaches 10%, counting equality as reaching it, for CACATCTCCACATCAG (sugars k3 d10 k3, PS)
Result: Met

* * *

target: MALAT1; conditions: ASO, A431, 0.005 µM
After the bases stand the sugars from the 5' end (letter, count) and the backbone: PS all phosphorothioate, else s phosphorothioate and o phosphodiester by linkage. Methylation of C is not given here. k = constrained ethyl (cEt); d = 2'-deoxy (DNA)
# reported target mRNA inhibition; entries follow
Note: unit % is implicit; provide only the numeric part.

Some entries whose results are on file:
seq_text	result_units	target mRNA inhibition
AGAAATCGGAGCAGCA (sugars k3 d10 k3, PS)	%	9
ATTTTAAAAAGGCTCG (sugars k3 d10 k3, PS)	%	27

Query: What value of target mRNA inhibition has been reported for the following sequence? GAACTCCACAGCTCTT (sugars k3 d10 k3, PS)
Result: 33

Query: What value of target mRNA inhibition has been reported for the following sequence? CAACAAGTAAGCCCCA (sugars k3 d10 k3, PS)
Result: 0

Query: What value of target mRNA inhibition has been reported for the following sequence? GCACGGAAATTTTTCT (sugars k3 d10 k3, PS)
Result: -3

* * *

biological target: APOL1; conditions: ASO, A431, 1 µM
After the bases stand the sugars from the 5' end (letter, count) and the backbone: PS all phosphorothioate, else s phosphorothioate and o phosphodiester by linkage. Methylation of C is not given here. e = 2'-O-(2-methoxyethyl) (MOE); k = constrained ethyl (cEt); d = 2'-deoxy (DNA)
measure_name: target mRNA inhibition (%)
Note: unit % is implicit; provide only the numeric part.

seq_text	measure_name	result_units	measured
TTCAGCTAAGACCAGT (sugars k4 d9 k3, PS)	target mRNA inhibition	%	88
AGCTTTAAACTCAGGT (sugars kkdddddkekeddddd, PS)	target mRNA inhibition	%	92
TACTTCTGTTAGATAC (sugars k4 d9 k3, PS)	target mRNA inhibition	%	92
GAGTCATTTGCTAGGT (sugars k4 d9 k3, PS)	target mRNA inhibition	%	92

Query: What value of target mRNA inhibition has been reported for the following sequence? GCTAATTTTCTGACTG (sugars k2 d4 e3 k2 d5, PS)
Result: 92

Query: What value of target mRNA inhibition has been reported for the following sequence? GAACGCAATGCTGACT (sugars k2 d4 e3 k2 d5, PS)
Result: 92

Query: What value of target mRNA inhibition has been reported for the following sequence? CTTTATACCAGTGTCT (sugars k3 d10 k3, PS)
Result: 88

Query: What value of target mRNA inhibition has been reported for the following sequence? AACTTTACCTCACCCT (sugars k4 d9 k3, PS)
Result: 88

Query: What value of target mRNA inhibition has been reported for the following sequence? TGTTATATTTGATCCT (sugars kekddddeekkddddd, PS)
Result: 89

Query: What value of target mRNA inhibition has been reported for the following sequence? AATTTTATGGAACCTC (sugars k3 d10 k3, PS)
Result: 90

Query: What value of target mRNA inhibition has been reported for the following sequence? ACTTCTGTTAGATACA (sugars k4 d9 k3, PS)
Result: 90

Query: What value of target mRNA inhibition has been reported for the following sequence? TTTGTAAGTGCAACCA (sugars kkdddddkekeddddd, PS)
Result: 91

Query: What value of target mRNA inhibition has been reported for the following sequence? AGCTTTAAACTCAGGT (sugars kdddddkekekddddd, PS)
Result: 92

Query: What value of target mRNA inhibition has been reported for the following sequence? GTGTATTTCTTGATGT (sugars k2 d4 e3 k2 d5, PS)
Result: 91

All values here come from the OligoGym collection.
